Molecular target: bcd (butyryl-CoA dehydrogenase) (Megasphaera elsdenii, UniProt Q06319)
Construct: isolated bcd component without EtfAB, C-terminal Strep II tag (pASG-IBA3), expressed in E. coli BL21; FAD-loaded, CoA persulfide removed by dithionite
Sequence (Q06319 whole entry): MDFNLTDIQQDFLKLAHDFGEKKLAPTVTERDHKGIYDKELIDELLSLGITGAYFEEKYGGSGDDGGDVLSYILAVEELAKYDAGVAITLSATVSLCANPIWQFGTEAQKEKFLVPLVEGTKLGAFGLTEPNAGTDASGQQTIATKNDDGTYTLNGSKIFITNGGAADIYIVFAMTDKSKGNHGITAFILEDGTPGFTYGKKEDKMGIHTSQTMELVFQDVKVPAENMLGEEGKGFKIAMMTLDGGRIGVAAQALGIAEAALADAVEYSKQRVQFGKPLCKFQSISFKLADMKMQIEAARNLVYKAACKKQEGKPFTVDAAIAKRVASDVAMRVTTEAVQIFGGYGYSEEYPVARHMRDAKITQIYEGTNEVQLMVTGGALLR
Assay: stopped-flow reduction of bcd FAD at […] nm, hyperbolic fit of kobs versus [butyryl-CoA]
Settings: oxidized bcd 10 μM, 50 mM Tris-HCl, 150 mM NaCl, pH 7.5, 10 °C, anaerobic; reverse of the physiological direction; read-out: Kd (apparent)
pKd: −log10 of the molar value.
QUANTITY NAME: pKd

[[record]]
compound = "CCCC(=O)SCCNC(=O)CCNC(=O)[C@H](O)C(C)(C)COP(=O)(O)OP(=O)(O)OC[C@H]1O[C@@H](n2cnc3c(N)ncnc32)[C@H](O)[C@@H]1OP(=O)(O)O [butyryl-CoA]"
reading = 4.22

